The origin of these recorded values is ChEMBL document CHEMBL1156843.

- test.details: Cytotoxicity against human HPC cells
- Format: cell-based
Listed here: items and their measured CC50.
Give the value in µM but do not write µM after it.

Field: example entries. Status: answers known.
1. CC[N+](C)(CC)CCOc1ccc(C(=O)N2C/C(=C\c3ccc([N+](=O)[O-])cc3)C(=O)/C(=C/c3ccc([N+](=O)[O-])cc3)C2)cc1.[I-]: 130
2. CCN(CC)CCOc1ccc(C(=O)N2C/C(=C\c3ccc(C)cc3)C(=O)/C(=C/c3ccc(C)cc3)C2)cc1.Cl: 9.3
3. CN(C)CCOc1ccc(C(=O)N2C/C(=C\c3ccccc3)C(=O)/C(=C/c3ccccc3)C2)cc1.Cl: 13
4. Cc1ccc(/C=C2\CN(C(=O)c3ccc(OCCN4CCOCC4)cc3)C/C(=C\c3ccc(C)cc3)C2=O)cc1.Cl: 49
5. CCN(CC)CCOc1ccc(C(=O)N2C/C(=C\c3ccccc3)C(=O)/C(=C/c3ccccc3)C2)cc1.Cl: 12

IN: Please report the recorded CC50 for CN(C)CCOc1ccc(C(=O)N2C/C(=C\c3ccc([N+](=O)[O-])cc3)C(=O)/C(=C/c3ccc([N+](=O)[O-])cc3)C2)cc1.Cl .
OUT: 5.2

IN: Returns the measured CC50 for the input compound. Input: Cl.O=C1/C(=C/c2ccccc2)CN(C(=O)c2ccc(OCCN3CCOCC3)cc2)C/C1=C\c1ccccc1
OUT: 95

IN: Requested field: CC50. Item: Cl.O=C1/C(=C/c2ccc([N+](=O)[O-])cc2)CN(C(=O)c2ccc(OCCN3CCOCC3)cc2)C/C1=C\c1ccc([N+](=O)[O-])cc1
OUT: 8.2

----------
- Test system: HSC-4
- test.details: Selectivity index, ratio of CC50 for human normal cells to CC50 for human HSC4 cells
- Type: functional
This section presents molecules with their documented Selectivity Index values.

1) N[C@@H](Cc1ccc(N(CCCl)CCCl)cc1)C(=O)O: >2.5

IN: So what does the record say about Selectivity Index for Cc1ccc(/C=C2\CN(C(=O)c3ccc(OCCN4CCCCC4)cc3)C/C(=C\c3ccc(C)cc3)C2=O)cc1.Cl ?
OUT: 2.2

IN: Fill in: Selectivity Index of Cl.O=C1/C(=C/c2ccc(Cl)cc2)CN(C(=O)c2ccc(OCCN3CCOCC3)cc2)C/C1=C\c1ccc(Cl)cc1 is ___
OUT: >22

IN: # Selectivity Index lookup, item CN(C)CCOc1ccc(C(=O)N2C/C(=C\c3ccccc3)C(=O)/C(=C/c3ccccc3)C2)cc1.Cl
OUT: 4.1

IN: Field request: Selectivity Index | item: CCN(CC)CCOc1ccc(C(=O)N2C/C(=C\c3ccc(Cl)cc3)C(=O)/C(=C/c3ccc(Cl)cc3)C2)cc1.Cl
OUT: >10

IN: # query: Selectivity Index of entry Cl.O=C1/C(=C/c2ccc([N+](=O)[O-])cc2)CN(C(=O)c2ccc(OCCN3CCCCC3)cc2)C/C1=C\c1ccc([N+](=O)[O-])cc1
OUT: 6.2

IN: Look up Selectivity Index: CN(C)CCOc1ccc(C(=O)N2C/C(=C\c3ccc(Cl)cc3)C(=O)/C(=C/c3ccc(Cl)cc3)C2)cc1.Cl
OUT: 7.1

IN: Can you share its Selectivity Index? I mean this molecule: CCN(CC)CCOc1ccc(C(=O)N2C/C(=C\c3ccccc3)C(=O)/C(=C/c3ccccc3)C2)cc1.Cl
OUT: 3.7
